Tested on: COG-LL-319h;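 also: ALL cell lines in 384-well plates, five doses spanning 10,000-fold, each plate scaled between vehicle and 100 µmol/L benzalkonium chloride controls, sDSS an adapted area-under-curve metric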
Experiment: selective drug sensitivity score (sDSS, relative to normal bone marrow) (sDSS (score)); higher = more potent and effective on the cell line relative to normal bone marrow cells
Settings: 72 h
Measured selective drug sensitivity score of individual entries
measuredQuantity: selective drug sensitivity score

molecule | readoutValue
CN1CC[C@@H](NC(=O)Nc2ccc(C#N)cc2)C[C@@H]1c1nc2ccccc2[nH]1 [Glasdegib] (top concentration 1000 nM) | 4.1
CC(C)[C@H](C(=O)Nc1ccc(C(=O)NO)cc1)c1ccccc1 [AR-42] (top concentration 10000 nM) | 10.8
Cn1cnc2c(F)c(Nc3ccc(Br)cc3Cl)c(C(=O)NOCCO)cc21 [Selumetinib] (top concentration 10000 nM) | -1.8
C[C@]1(O)C[C@@H](c2nc(-c3ccc4ccc(-c5ccccc5)nc4c3)c3c(N)nccn32)C1 [Linsitinib] (top concentration 10000 nM) | -1.78
CCS(=O)(=O)N1CC(CC#N)(n2cc(-c3ncnc4[nH]ccc34)cn2)C1 [Baricitinib] (top concentration 2500 nM) | -1.94
CC[C@@]1(O)C(=O)OCc2c1cc1n(c2=O)Cc2cc3c(CN(C)C)c(O)ccc3nc2-1 [Topotecan] (top concentration 10000 nM) | 18.6

Data credit: the supplement of paper PMC8967900
